# TGI annotations
- System: HL-60(TB) leukemia
- EXPERIMENT NOTES: NCI tumour cell line growth inhibition, 48 h
Numbers only; they are read as µM.

Below, 2 compounds whose answers are already recorded.
// C=C1CC[C@H](O)C(C)(C)[C@@H]1CC/C(C)=C/CC/C=C(\C)CC/C=C(\C)CCC=C(C)C : TGI value = 69

Consider COc1cc2c3c(n(CCNCCCNCCn4c5c(c6cc(OC)c(OC)cc6c4=O)C(=O)c4ccccc4-5)c(=O)c2cc1OC)-c1ccccc1C3=O . Its measured TGI is 0.334

Turning to the following compound.
Input CCN(CC)CCCC(C)Nc1cnc(C(=O)Nc2cccc3ccc(OC)nc23)cn1 (stereo not given) . Output TGI: 3.9

###

- System: SF-539 CNS
- EXPERIMENT NOTES: NCI tumour cell line growth inhibition, 48 h
Listing of recorded TGI by entry.

Noted TGI for Cc1nn(C(=O)Cc2ccccc2)c2c1C(c1ccc(N(C)C)cc1)SC(N)=N2 (stereo not given) , tested on SF-539 CNS: > 100 µM

More entries:
Bench note, SF-539 CNS: CCc1c(C)c(C#N)c(=S)n(C2OC(COC(C)=O)C(OC(C)=O)C(OC(C)=O)C2OC(C)=O)c1C (stereo not given) , TGI reads > 100 µM

###

- System: COLO 205 colon
- EXPERIMENT NOTES: NCI tumour cell line growth inhibition, 48 h
# key: entry, value: TGI

Would you please look over these solved cases?
Quick note, TGI for N.N.O=C([O-])P(=O)([O-])[O-].[Na+].[Pt+4] landed at > 100 µM

Recorded result, O=C(/C(=C/c1cccc([N+](=O)[O-])c1)c1ccccc1)c1ccccc1 , TGI: 13.3 µM

So for CN(/N=C/c1ccc(OCc2cccc(COc3ccc(C=O)cc3)n2)cc1)c1cnn(-c2ccc(Cl)cc2Cl)c(=O)c1Cl , the logged TGI turned out to be > 100 µM

***
The recorded TGI for entry COC(=O)c1cc(C)c(C)c2c1NC(=O)CNC2=O equals > 100 µM

###

Some compounds, each annotated with its measured TGI.
- Tested on: NCI-H23 lung
- EXPERIMENT NOTES: NCI tumour cell line growth inhibition, 48 h

The recorded TGI for entry Cc1ccc(C)c(COCCOCn2ccc(N)nc2=O)c1 equals > 100 µM

Consider O=C1NCCCNCCCNCCCNC(=O)c2cccc1n2 . Its measured TGI is > 100 µM

So for Cc1ccc(NC(=O)c2sc3nc(C)c(C(O)c4ccccc4)cc3c2N)cc1 (stereo not given) , the logged TGI turned out to be > 100 µM

Measured TGI of CCOc1ccc2c(c1)[n+]([O-])c(-c1nc3ccccc3s1)c(N)[n+]2[O-] : > 100 µM

Entry under test: O=C(O)Cc1cccc2c1OC(c1ccccc1)C(Cl)(C(=O)c1ccccc1)C2=O (stereo not given) . Its TGI was 33.1 µM

Per the record, C/C(=N\Nc1ccc(Cl)cn1)c1ccccn1 has TGI of > 100 µM

Item: COc1ncc(-c2ccc3ncnc(Nc4cccc(Cl)c4)c3c2)cc1NS(=O)(=O)CCN1CCOCC1 | TGI: > 100 µM

// TGI lookup, compound = Cc1cc(C)n(C2OC(CO)C(O)C(O)C2O)c(=S)c1C#N (stereo not given) , result: > 100 µM

Continuing:
The recorded TGI for Cn1cnc([N+](=O)[O-])c1[Se]c1nc(N)nc2c1ncn2C1OC(CO)C(O)C1O (stereo not given) is > 100 µM

Measured TGI of COc1cc(NS(=O)(=O)c2ccc(-c3cnc(C4CC4)o3)cc2)ccc1F : 21.4 µM
